system: OVCAR-5 ovarian; assay: NCI tumour cell line growth inhibition, 48 h
Assignment: determine reported TGI for the given compounds.

[Q] Item `C[C@]12CC[C@H]3[C@@H](CC=C4C[C@@H](N5CCCC5)CC[C@@]43C)[C@@H]1C[C@H](N1CCCCC1)[C@@H]2O` has what recorded TGI?
[A] > 100 µM

[Q] Fill blank: measured TGI of the compound `Nc1cc2c3c(cccc3c1)C(=O)N(CCN1CCCC1)C2=O` is ____.
[A] > 57.6 µM

[Q] Dear colleague, I am looking for the recorded TGI of the following compound: `O=S(=O)(Nc1nc2ccccc2nc1N1CCCCCC1)c1ccccc1`
[A] > 100 µM

[Q] Query (compound): ClC1=NN=C(c2c[nH]c3ccccc23)CC1NCc1ccccc1 (stereo not given) ; field requested: TGI
[A] > 100 µM

[Q] Would you mind telling me what TGI value was observed for `N#Cc1c(-c2ccc([N+](=O)[O-])cc2)c(C#N)c(=O)n(NS(=O)(=O)c2ccccc2)c1S` ?
[A] > 100 µM

[Q] Need TGI, item COc1ccccc1NC(=O)C(=O)C(C(=O)c1ccccc1F)C1OC(=O)c2ccccc21 (stereo not given)
[A] > 100 µM

[Q] Query: TGI; subject: `COc1ccc(-c2ccc(OC)c(OC)c2OC)cc1`
[A] > 100 µM

[Q] Consider the compound shown here: `O=c1c(-c2ccc3c(c2)OCO3)coc2c3c(ccc12)OCO3` What is its recorded TGI?
[A] > 100 µM

[Q] Endpoint output: TGI of CC(=O)Nc1ccc(C2CC(c3ccc([N+](=O)[O-])cc3)=Nc3ccccc3S2)cc1 (stereo not given) . Value?
[A] 41.5 µM

[Q] Record request: TGI value, item N[C@@H](CCC(=O)NC(Cc1ccccc1)C(=O)NCP(=O)(O)O)C(=O)O (stereo not given in full)
[A] > 100 µM

###

test system: MDA-MB-435; experiment: NCI tumour cell line growth inhibition, 48 h
metric-name: log10(TGI) (log10 of the value in µM)
A value of 2 here means TGI of 100 in µM, since values are log10.

[Q] // log10(TGI) lookup, key: `COc1ccc(-n2c(=S)sc3c(Cl)nc(C)nc32)c(OC)c1`
[A] 0.59

[Q] // query log10(TGI) value for entry COC(=O)c1c2c(cc3c1CC1(Cc4cc5c(c(C=O)c4C1)CCC5)C3)CCC2 (configuration not stated)
[A] 1.70

[Q] Recorded log10(TGI) of `NC(N)=N/N=C\c1ccc(OCc2ccccc2)cc1` , please.
[A] 0.61

[Q] Reported log10(TGI) for `NC(=O)[C@H](Cc1ccc(O)cc1)Nc1c(O)c2c(c(O)c1Cl)C(=O)C=CC2=O` : what is it?
[A] 0.60

[Q] Request the reported log10(TGI) associated with `O=C(Nc1n[nH]c2cc(-c3cc(F)ccc3F)ccc12)C1CC1`
[A] 1.33

[Q] # lookup: log10(TGI) of CC(C)(C)C[C@H]1N[C@@H](C(=O)NC2CCC(O)CC2)[C@H](c2cccc(Cl)c2F)[C@@]12C(=O)Nc1cc(Cl)ccc12 (some centres not stated)
[A] 1.22

[Q] I have this molecule here, `COc1ccc2[nH]c(C(=O)N3CCN(C(=O)OCc4ccc5c(Cl)cc(Cl)c(O)c5n4)CC3)cc2c1` , and I need its recorded log10(TGI).
[A] 0.43

[Q] I have this molecule here, `COc1ccc(-c2ccc(C(=O)C=P(c3ccccc3)(c3ccccc3)c3ccccc3)cc2)cc1` , and I need its recorded log10(TGI).
[A] 1.48

[Q] What value of log10(TGI) has been recorded for this entry: CC1OC(OC2C(O[C@H]3CC[C@@]4(C)C(=CC[C@H]5[C@@H]6C[C@@H]7O[C@]8(CC[C@@H](C)CO8)[C@@H](C)[C@@H]7[C@@]6(C)CC[C@@H]54)C3)OC(CO)C(O)C2OC2OC(CO)C(O)C(O)C2O)C(O)C(O)C1O (some centres not stated)
[A] 0.57

[Q] Recorded log10(TGI) of `Nc1cc2c3c(cccc3c1)C(=O)N(CCN1CCCC1)C2=O` , please.
[A] 1.17

[Q] Which log10(TGI) value belongs to `N#Cc1c(-c2ccc([N+](=O)[O-])cc2)c(C#N)c(=O)n(NS(=O)(=O)c2ccccc2)c1S` ?
[A] 1.91

[Q] Return reported log10(TGI); argument: `COc1cc2c(/C=C3/C(=O)Nc4ccccc43)c(Cl)n(Cc3ccc(Cl)cc3)c2cc1C`
[A] -0.37

###

system: LOX IMVI melanoma; assay: NCI tumour cell line growth inhibition, 48 h
metric-name: TGI

[Q] # lookup: TGI of `O=C1NC(=NCCc2ccc(Cl)cc2)S/C1=C\c1ccc2ncccc2c1`
[A] > 25 µM

[Q] Item `Cc1ccc(C2=CC(=O)c3ccccc3C2=O)n1-c1ccccc1` has what recorded TGI?
[A] > 100 µM

[Q] Given `Cc1n[nH]c2ccccc2c1=O` , state its recorded TGI.
[A] > 100 µM

[Q] Look at this compound and give its reported TGI. `Cc1cc2c(c(C(=O)O)c1C)-c1cccc(Cl)c1C2=O`
[A] > 100 µM

[Q] Which TGI is reported for this compound? `O=c1c(Cc2ccccc2)c(O)cc2n1CCC2`
[A] > 100 µM

[Q] Could you tell me which TGI is on file for `Oc1ccc(Cl)cc1C=Nc1cnc2ccccc2c1` ?
[A] > 100 µM

[Q] Find the recorded TGI belonging to `CC(C)(CO[C@H]1C[C@H]2CC[C@@]1(C)C2(C)C)[N+](=O)[O-]` and report it.
[A] 35.1 µM

[Q] Given the entry CC(C)(C)C[C@H]1N[C@@H](C(=O)NC2CCC(O)CC2)[C@H](c2cccc(Cl)c2F)[C@@]12C(=O)Nc1cc(Cl)ccc12 (some centres not stated) , report its measured TGI.
[A] 18.1 µM

[Q] Quick one: TGI of `O=CCCCCCOCc1ccccc1` ?
[A] 34.9 µM

[Q] Quick check: TGI of `CCC[CH2][Sn-]([CH2]CCC)([CH2]CCC)[O]C(=O)C(C)C` ?
[A] 0.215 µM

[Q] May I ask what TGI has been recorded for O=C1NC(O)c2cc3ccccc3cc2O1 (configuration not stated) ?
[A] 95.3 µM

[Q] Look up TGI for this compound: `CC(=O)[CH-]C(C)=O.CC(=O)[CH-]C(C)=O.[O-]c1ccccc1.[O-]c1ccccc1.[Ti+4]`
[A] > 100 µM

[Q] Query (compound): `Cc1ccccc1NC(=O)CSc1nnc(-c2ccc(N=Cc3ccc(Cl)cc3)cc2)o1` ; field requested: TGI
[A] > 100 µM

[Q] Which TGI is reported for this compound? `CCOC(=O)c1c(-c2ccc(OC)cc2)ccn1C`
[A] > 10 µM

[Q] What measured TGI goes with `CCCCCC[C@H]([C@H](C)O)n1cnc2c(N)ncnc21` ?
[A] > 100 µM

[Q] Which TGI reading was recorded for the compound `O=C1C(=O)c2c(nc3ccc(C(F)(F)F)cn23)-c2ccccc21` ?
[A] 0.354 µM

[Q] Using the record for `O=c1c(-c2ccc3c(c2)OCO3)coc2c3c(ccc12)OCO3` , report its TGI.
[A] > 100 µM

[Q] Request the reported TGI associated with `COc1ccc(-c2ccc(C(=O)C=P(c3ccccc3)(c3ccccc3)c3ccccc3)cc2)cc1`
[A] 31.5 µM

[Q] Would you mind telling me what TGI value was observed for `CCCC(=O)O[C@]1(C)CC[C@@H]2[C@H]3[C@@H]1[C@@H]1C[C@@](C)(O)[C@H](OC)CC[C@](C)(OC(=O)[C@@H]2C)[C@H]3O1` ?
[A] > 100 µM

[Q] Entry `CCc1nc(N)c2nc(-c3cccs3)oc2n1` has what TGI?
[A] > 100 µM

[Q] GET /values?readout=TGI&item= `NC(N)=N/N=C\c1ccc(OCc2ccccc2)cc1`
[A] 2.96 µM

[Q] Would you kindly share the measured TGI for O=C1NC(O)n2c(=O)[nH]c(=O)n21 (configuration not stated) ?
[A] > 100 µM

###

test system: OVCAR-5 ovarian; assay: NCI tumour cell line growth inhibition, 48 h; in the data active = GI50 below about 0.43 µM; inactive = the rest
Form entry, call: pick from True = active, False = inactive

[Q] For CCCCCCCC(=O)OCC/C=C/C1OC1C1OC(=O)/C=C\C=C\C(=O)N(C(C)=O)C(=O)/C=C(/C)CCC2OC2C1OC(=O)NC(C)=O (centres undefined) , what call appears in the results of this test?
[A] False

[Q] Test call for this compound, please: `C[C@@]1(F)[C@H](O)[C@@H](CO)O[C@H]1n1ccc(=O)[nH]c1=O`
[A] False

[Q] Please state the recorded outcome for this compound: COc1cc(/C=N/NC(=O)c2cnn3c2NC(c2ccccc2)C3)ccc1OC1CCCC1 (centres undefined)
[A] False

[Q] // outcome(item) with item = `Cn1c(I)c(C#C[Si](C)(C)C)c(=O)n(C(=O)c2ccccc2)c1=O`
[A] False

[Q] What is the recorded call for this compound in the test? COC1=CC(c2ccc[nH]2)=N/C1=C\c1[nH]c(C)c(C(=O)CCCCCCCCC(=O)O[C@H]2CC[C@H]3C4CCc5cc(O)ccc5C4CC[C@]23C)c1C (some centres undefined)
[A] False

[Q] What outcome does the record of this test show for CC1=NN(c2cccc(Cl)c2)C(=O)/C1=C\c1cn(CC(O)CN2CCCCC2)c2ccccc12 (centres undefined) ?
[A] False

[Q] # lookup: test call for `CCC[CH2][Sn-]([CH2]CCC)([CH2]CCC)[O]C(=O)C(C)C`
[A] True

[Q] Could you check what this test reported for `CN(C)CCC(=O)Nc1ccc(-n2cc(-c3cccc(NC(=S)Nc4cccc(-c5cn(-c6ccc(NC(=O)CCN(C)C)cc6)nn5)c4)c3)nn2)cc1` ?
[A] False

[Q] # fetch the recorded call for `CC(=O)[CH-]C(C)=O.CC(=O)[CH-]C(C)=O.[O-]c1ccccc1.[O-]c1ccccc1.[Ti+4]` here
[A] False

[Q] Short answer needed: outcome of this test for `O=c1c(Cc2ccc3c(c2)OCO3)nnc2sc(-c3cc(F)c(Cl)cc3Cl)nn12` ?
[A] False

[Q] Record lookup: outcome of this test for `C[C@@H]1C[C@@H]([C@H](O)CC2CC(=O)NC(=O)C2)C(=O)[C@@H](C)C1` ?
[A] True

[Q] Which outcome was entered for the compound `Cc1cccc(N2C(=O)/C(=C/C(Cl)=C/c3ccc([N+](=O)[O-])cc3)SC2=S)c1C` in this test?
[A] False

[Q] For this compound, state the assay outcome: `COc1ccc2c(c1)C(=O)c1c-2c(OCCCN(C)C)nc2cc(Br)ccc12`
[A] False

[Q] Per the assay record, what outcome was assigned to `COc1cc2c(/C=C3\C(=O)Nc4ccccc43)c[nH]c2cc1C` ?
[A] False
